Target: T1, Y1 receptor (human, UniProt P25929 1-384)
T1 construct: whole, on cells; Assayed as membrane homogenates of SK-N-MC cells, not intact cells; also called NPY Y1
T1 sequence (looked up): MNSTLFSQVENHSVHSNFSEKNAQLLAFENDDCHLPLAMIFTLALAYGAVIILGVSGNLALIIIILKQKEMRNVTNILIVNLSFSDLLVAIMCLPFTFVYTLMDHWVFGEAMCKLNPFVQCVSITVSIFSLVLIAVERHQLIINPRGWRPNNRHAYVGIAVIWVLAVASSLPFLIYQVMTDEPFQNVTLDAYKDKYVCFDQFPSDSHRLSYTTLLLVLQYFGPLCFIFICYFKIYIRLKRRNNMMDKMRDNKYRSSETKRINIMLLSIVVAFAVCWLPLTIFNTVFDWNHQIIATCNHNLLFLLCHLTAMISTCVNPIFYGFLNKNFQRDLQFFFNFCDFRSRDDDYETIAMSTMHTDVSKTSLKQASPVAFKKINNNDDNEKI
Assay: radioligand competition against [125I-Leu31,Pro34]PYY, SK-N-MC membranes, Cheng-Prusoff
Non-standard residues stand in square brackets, D forms with d. 3Pal = N[C@@H](Cc1cccnc1)C(=O)O
MEASUREMENT KIND: Ki

# lookup: Ki of Ac-LR[3Pal]YLNLLTRQRY-NH2 (SMILES CC(=O)N[C@@H](CC(C)C)C(=O)N[C@@H](CCCNC(=N)N)C(=O)N[C@@H](Cc1cccnc1)C(=O)N[C@@H](Cc1ccc(O)cc1)C(=O)N[C@@H](CC(C)C)C(=O)N[C@@H](CC(N)=O)C(=O)N[C@@H](CC(C)C)C(=O)N[C@@H](CC(C)C)C(=O)N[C@H](C(=O)N[C@@H](CCCNC(=N)N)C(=O)N[C@@H](CCC(N)=O)C(=O)N[C@@H](CCCNC(=N)N)C(=O)N[C@@H](Cc1ccc(O)cc1)C(N)=O)[C@@H](C)O, Also carries Leu at 31 (residue 8 of the peptide), already in the entry) [Ac-(3Pal^26, Leu^31)hPPY(24-36)NH2]
< 2000 nM

These entries and their values trace back to patent US20060211610A1.
